Where do the numbers come from? From patent US20240409645A1.

Each record here notes measured PE binding ELISA OD.
experimental_target: T1, human common cytokine receptor γ-chain (IL-2Rγ) (human, UniProt P31785 23-262, limits assumed)
T1 construct: Recombinant human IL-2Rγ protein, coated (ELISA) or amine-coupled to a CM5 chip (SPR); also called hu IL-2R; CD132
T1 sequence: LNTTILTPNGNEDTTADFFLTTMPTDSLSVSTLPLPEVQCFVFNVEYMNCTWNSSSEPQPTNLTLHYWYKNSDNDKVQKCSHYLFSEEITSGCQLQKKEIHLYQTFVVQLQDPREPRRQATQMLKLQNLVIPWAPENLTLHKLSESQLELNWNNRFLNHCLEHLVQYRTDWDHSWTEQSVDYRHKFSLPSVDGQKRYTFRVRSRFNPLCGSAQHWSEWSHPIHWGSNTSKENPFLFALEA
procedure_details: P.E. binding ELISA
parameter: PE binding ELISA OD (OD450 nm)

binder: FJ1427_P035MP07G10 (VHH, tested as periplasmic extract; also called Clone nr; 655) VHH: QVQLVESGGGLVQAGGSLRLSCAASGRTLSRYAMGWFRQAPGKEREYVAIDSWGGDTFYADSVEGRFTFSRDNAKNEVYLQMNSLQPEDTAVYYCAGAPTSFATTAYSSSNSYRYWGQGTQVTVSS
parameter: PE binding ELISA OD
numeric_value: 0.682

binder: FJ1427_P035MP07C04 (VHH, tested as periplasmic extract; also called Clone nr) VHH: QVQLVESGGGVVQAGGSLRLSCAASGRTLSRYAMGWFRQAPGKEREFVTANSWGGDTYYADSVQGRFTFSRDNAKNTVYLQMNSLQPEDTAVYYCAAAPTSFATTAYSSSNSYAYWGQGTQVTVSS
parameter: PE binding ELISA OD
numeric_value: 0.406

binder: FJ1427_P035MP07E04 (VHH, tested as periplasmic extract; also called Clone nr; 605) VHH: QVQLVESGGGLVQAGDSLRLSCEASGRTLSRYAMGWFRQAPGKEREFVTANSWGGDTYYADSVQGRFTFSRDNAKNTVYLQMNSLQPEDTAVYYCAAAPTSFATTAYSSSNSYAYWGQGTQVTVSS
parameter: PE binding ELISA OD
numeric_value: 0.729

binder: FJ1427_P035MP07C03 (VHH, tested as periplasmic extract; also called Clone nr) VHH: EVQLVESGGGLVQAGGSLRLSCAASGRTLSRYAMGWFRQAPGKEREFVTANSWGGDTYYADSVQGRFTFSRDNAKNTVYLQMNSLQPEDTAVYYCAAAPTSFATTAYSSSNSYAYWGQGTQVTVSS
parameter: PE binding ELISA OD
numeric_value: 0.982

binder: FJ1427_P035MP07B04 (VHH, tested as periplasmic extract; also called Clone nr; 602) VHH: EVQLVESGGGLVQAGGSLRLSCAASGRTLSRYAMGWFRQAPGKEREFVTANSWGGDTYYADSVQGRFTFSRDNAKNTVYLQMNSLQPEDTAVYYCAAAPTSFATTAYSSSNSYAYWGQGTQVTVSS
parameter: PE binding ELISA OD
numeric_value: 0.97

binder: FJ1427_P035MP07E09 (VHH, tested as periplasmic extract; also called Clone nr) VHH: QVQLQESGGGLVQAGGSLRLSCAASGRTLSRYAMGWFRQAPGKEREFVTANSWGGDTYYADSVQGRFTFSRDNAKNTVYLQMNSLQPEDTAVYYCAAAPTSFATTAYSSSNSYAYWGQGTQVTVSS
parameter: PE binding ELISA OD
numeric_value: 0.428

binder: FJ1427_P035MP07C10 (VHH, tested as periplasmic extract; also called Clone nr; 651) VHH: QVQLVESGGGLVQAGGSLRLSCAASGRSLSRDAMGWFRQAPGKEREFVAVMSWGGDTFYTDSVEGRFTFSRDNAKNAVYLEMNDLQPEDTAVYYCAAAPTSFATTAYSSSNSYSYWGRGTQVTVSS
parameter: PE binding ELISA OD
numeric_value: 0.424

binder: FJ1427_P035MP07H07 (VHH, tested as periplasmic extract; also called Clone nr) VHH: QVQLVESGGGLVQAGDSLRLSCAASGRTLSRYAMGWFRQAPGKEREFVAATSWGGDSYYADSVEGRFTFSRDNAKNAVYLQMNSLQPEDTAVYYCAAAPTSFATTAYSSSNSYANWGQGTQVTVSS
parameter: PE binding ELISA OD
numeric_value: 1.42
